B1: POU domain, class 5, transcription factor 1, residues 134 to 212; numbered along this chain, Q01860 (parent)
chain: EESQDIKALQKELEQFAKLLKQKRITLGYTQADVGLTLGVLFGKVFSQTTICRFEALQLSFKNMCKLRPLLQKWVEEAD

Variants of: B1
Method: abundance fitness (aPCA) (normalised: wild type 0, dead -1); higher = more abundant; growth selection in yeast, the domain comes from the species named
Test conditions: Homo sapiens
Group membership follows abundance fitness per the scheme 1 (below -0.2), 2 (-0.2 to below 0.09), 3 (0.09 or more)

Assign a category based on measured abundance fitness for `EESQDIKALQKELEQFAKLLKQKRITLGYTQADVGLTLGVLFGKVFSQTTICRFEALQLSFKQMCKLRPLLQKWVEEAD` and give only the class name.
1

Which bin should I file `EESTDIKALQKELEQFAKLLKQKRITLGYTQADVGLTLGVLFGKVFSQTTICRFEALQLSFKNMCKLRPLLQKWVEEAD` under?
2
